molecular target: neuraminidase (NA), neuraminidase inhibitors screen kit; construct: enzyme of a commercial Beyotime screening kit; format: biochemical; conditions: 2'-(4-methylumbelliferyl)-alpha-D-N-acetylneuraminic acid substrate; 37 °C; 30 min
Simple rule here: IC50 less than 400 µg/mL is Criterion met, otherwise Criterion not met.

Lab note: confirm whether the reported IC50 for this molecule is below 400 µg/mL, equality not counting. molecule: O=C(O)[C@H]1O[C@@H](Oc2cc(O)c3c(=O)cc(-c4ccccc4)oc3c2)[C@H](O)[C@@H](O)[C@@H]1O [compound 15, chrysin-7-O-glucuronide]
Criterion not met

Lab note: confirm whether the reported IC50 for this molecule is below 400 µg/mL, equality not counting. molecule: COc1c(O)cc(O)c2c(=O)cc(-c3ccccc3)oc12 [compound 23, wogonin]
Criterion met

Lab note: confirm whether the reported IC50 for this molecule is below 400 µg/mL, equality not counting. molecule: COc1c(O[C@@H]2O[C@H](C(=O)O)[C@@H](O)[C@H](O)[C@H]2O)cc(O)c2c(=O)cc(-c3ccccc3)oc12 [compound 19, wogonoside]
Criterion not met

Lab note: confirm whether the reported IC50 for this molecule is below 400 µg/mL, equality not counting. molecule: O=C(O)[C@H]1O[C@@H](Oc2cc3oc(-c4ccccc4)cc(=O)c3c(O)c2O)[C@H](O)[C@@H](O)[C@@H]1O [compound 11, baicalin]
Criterion met

Lab note: confirm whether the reported IC50 for this molecule is below 400 µg/mL, equality not counting. molecule: COc1c(O)cc2oc(-c3ccccc3)cc(=O)c2c1O [compound 25, oroxylin A]
Criterion not met

Lab note: confirm whether the reported IC50 for this molecule is below 400 µg/mL, equality not counting. molecule: O=c1cc(-c2ccc(O)cc2)oc2cc(O)c(O)c(O)c12 [compound 10, scutellarein]
Criterion not met
